Tested on: 786-0
Experiment: NCI tumour cell line growth inhibition, 48 h
Calls of active or inactive are those of the source. No stated cut-off is given here; in the data, active = GI50 up to about 1.1 µM and inactive = higher.
reported endpoint: GI50

INSERT INTO assay_data (compound, recorded_result) VALUES
  ('NC(=O)C(=O)N/N=C(\CC1(O)C(=O)Nc2ccccc21)c1ccc2ccccc2c1 (centres undefined)', '36.5 µM (inactive)'),
  ('Cc1c2n(c(=O)[nH]c1=O)C1OC(CO)C(O2)C1O (centres undefined)', '> 100 µM (inactive)'),
  ('N#CCCOc1cccc(C2(N3CCCCC3)CCCCC2)c1', '> 100 µM (inactive)'),
  ('Nc1n[nH]c2c(C(=O)Nc3ccc(Cl)cc3)c(N)n(N)c(=O)c12', '> 100 µM (inactive)'),
  ('CC12Nc3c(Cl)cc(Cl)cc3N1C(=O)c1ccccc12 (centres undefined)', '> 100 µM (inactive)'),
  ('O=C1NC(N2CCCC(CO)C2)=N/C1=C\c1ccc(O)cc1 (centres undefined)', '> 100 µM (inactive)'),
  ('O=C1[C@@H]2[C@@H](CN3CN(c4ccccc4)N=C(c4ccccc4)[C@@]23c2ccccc2)C(=O)N1c1ccccc1', '1.88 µM (inactive)'),
  ('CC(=O)N(C)SCC(NC(=O)C(Cc1ccccc1)NC(=O)OCc1ccccc1)C(=O)NC(Cc1ccccc1)C(=O)NC(Cc1cn(C=O)c2ccccc12)C(=O)NC(CCCCNC(=O)OCc1ccccc1)C(=O)NC(C(=O)NC(CSN(C)C(C)=O)C(=O)NO)C(C)OCc1ccccc1 (centres undefined)', '> 100 µM (inactive)'),
  ('O=C(CCCCCCCCC(=O)N1C(=O)CC(=O)N(c2ccc(Cl)cc2)C1=S)N1C(=O)CC(=O)N(c2ccc(Cl)cc2)C1=S', '67.9 µM (inactive)'),
  ('CC(C)[Si]1(C(C)C)OCC2OC(n3ccc(=O)[nH]c3=O)C(O)(CO)C2O[Si](C(C)C)(C(C)C)O1 (centres undefined)', '15.3 µM (inactive)'),
  ('Cn1nc(-c2ccccc2)nc1[N+](=O)[O-]', '> 10 µM (inactive)'),
  ('NC(=O)c1oc([N+](=O)[O-])c(-c2ccccc2)c1-c1ccccc1', '25.1 µM (inactive)'),
  ('CC(=O)OC(C)C(=O)C1c2cccc(O)c2C(=O)c2c(O)cc(C)cc21 (centres undefined)', '1.09 µM (active)'),
  ('O=c1[nH]nc2ccccc2c1Cc1ccccc1', '> 100 µM (inactive)'),
  ('Cc1ccc(S(=O)(=O)NC2(C=O)CCCC3CCCCC32)cc1 (centres undefined)', '> 100 µM (inactive)'),
  ('O=C(c1c(F)c(F)c(F)c(F)c1F)n1c(=S)n(C(=O)c2c(F)c(F)c(F)c(F)c2F)c2ccccc21', '> 100 µM (inactive)'),
  ('O=S(=O)(N/C(=N\O)Nc1ccc(Cl)cc1)c1cc2ccccc2s1', '18.4 µM (inactive)'),
  ('O=c1c2ccccc2n2n1Cc1ccccc1C2', '> 100 µM (inactive)'),
  ('CN(C)CCCN1C(=O)N(CCCN(C)C)c2c3cc(O)ccc3nc3c([N+](=O)[O-])ccc1c23', '8.13 µM (inactive)');

----------
Observed GI50, system HCT-15.
reported endpoint: GI50

INSERT INTO results (compound, recorded_result) VALUES
  ('CC(C)(C)OC(=O)NCC(c1c[nH]c2ccc(Br)cc12)c1c[nH]c2ccc(Br)cc12', '7.73 µM'),
  ('O=C(/C=C/c1ccccc1)Oc1cccc(O)c1', '16.6 µM'),
  ('CC1=C(c2ccc(C)cc2)NC(=S)C(C)C(c2ccc(C)cc2)=N1 (stereo unspecified)', '82.8 µM'),
  ('O=C(c1ccc(Cl)cc1)N(C(=S)N1CCN(c2ccccn2)CC1)C1CCCCC1', '43.8 µM'),
  ('BC(=O)NC(CC(C)C)C(=O)NC1c2ccsc2C(=O)C1O.CN(C)C (stereo unspecified)', '> 100 µM'),
  ('CCCN(CCCN)/[N+]([O-])=N\O', '> 100 µM'),
  ('O=c1[nH]nc2ccccc2c1Cc1ccccc1', '> 100 µM'),
  ('C=CCCC(C)N(C(=O)OC(C)(C)C)S(=O)(=O)c1ccc(C)cc1 (stereo unspecified)', '> 100 µM'),
  ('Cc1ccc(Cl)c2c(=O)c3ccc([N+](=O)[O-])cc3sc12', '> 100 µM'),
  ('O=C(c1c(F)c(F)c(F)c(F)c1F)n1c(=S)n(C(=O)c2c(F)c(F)c(F)c(F)c2F)c2ccccc21', '> 100 µM'),
  ('CC1=C(C(=O)NC2CCCCC2)CC(C(=O)NC2CCCCC2)=C(C)N1', '> 100 µM'),
  ('O=C(NCCNCCO)N/N=C/c1cccc([N+](=O)[O-])c1', '> 100 µM'),
  ('COC(=O)CCc1cc(O)c2c(c1)C(C(=O)OC)C(c1ccc(O)c(O)c1)O2 (stereo unspecified)', '4.36 µM'),
  ('COc1cc([C@@H]2c3cc4c(cc3[C@@H](Nc3ccc(Cl)cc3C(=O)c3ccccc3Cl)[C@H]3COC(=O)[C@H]23)OCO4)cc(OC)c1OC', '0.102 µM'),
  ('C[n+]1c(-c2ccc(/C=N/NC(=O)c3ccc(C(=O)N/N=C/c4ccc(-c5cn6ccccc6[n+]5C)cc4)cc3)cc2)cn2ccccc21', '> 100 µM'),
  ('CC1OC(n2cc(F)c(=O)[nH]c2=O)CCC1O (stereo unspecified)', '> 94.4 µM'),
  ('C1CSCCSCCCSCCSCCCSCCSCCCSCCSC1', '> 100 µM'),
  ('CC(=O)OC12C=CC(=O)N1c1ccccc1C(=O)O2 (stereo unspecified)', '> 100 µM'),
  ('CC(C)C1CCC/C=C/C=C/C=C/C=C/C(OC2OC(C)C(O)C(N)C2O)CC2OC(O)(CC(O)CC(O)C(O)CCC(=O)O1)CC(O)C2C(=O)O (stereo unspecified)', '> 52.5 µM'),
  ('C=C1C(=O)OC2C1CCC(=C)C1CC(O)C(=C)C12 (stereo unspecified)', '10.8 µM'),
  ('COc1cc(NCc2ccc3oc(=O)c(-c4ccccc4)nc3c2)cc(OC)c1OC', '> 10 µM');
